# METHOD_DESCRIPTION: DLS particle size and PDI of drugs milled with F127 or SDS (Example 6)
# Type: physicochemical
# APPLIED_CONDITIONS: drug milled with stabilizer F127

MOLECULE	PDI
CCC(=O)O[C@]1(C(=O)SCF)[C@H](C)C[C@H]2[C@@H]3C[C@H](F)C4=CC(=O)C=C[C@]4(C)[C@@]3(F)[C@@H](O)C[C@@]21C [Fluticasone propionate]	0.114
CCOC(=O)O[C@]1(C(=O)OCCl)CC[C@H]2[C@@H]3CCC4=CC(=O)C=C[C@]4(C)[C@H]3[C@@H](O)C[C@@]21C [Loteprednol etabonate]	0.123
C[C@]12C=CC(=O)C=C1CC[C@@H]1[C@@H]2[C@@H](O)C[C@@]2(C)[C@H]1CC[C@]2(O)C(=O)CO [Prednisolone]	0.090
NS(=O)(=O)c1cc(C(=O)O)c(NCc2ccco2)cc1Cl [Furosemide]	0.119
COc1ccc2c(c1)c(CC(=O)O)c(C)n2C(=O)c1ccc(Cl)cc1 [Indomethacin]	0.123

* * *

Each record here notes measured PDI.
# METHOD_DESCRIPTION: DLS particle size and PDI of drugs milled with F127 or SDS (Example 6)
# Assay type: physicochemical
# APPLIED_CONDITIONS: drug milled with stabilizer SDS
QUANTITY_MEASURED: PDI

COMPOUND	QUANTITY_MEASURED	NUMERIC_READOUT
C[C@]12C=CC(=O)C=C1CC[C@@H]1[C@@H]2[C@@H](O)C[C@@]2(C)[C@H]1CC[C@]2(O)C(=O)CO	PDI	0.120
COc1ccc2c(c1)c(CC(=O)O)c(C)n2C(=O)c1ccc(Cl)cc1	PDI	0.154
CCOC(=O)O[C@]1(C(=O)OCCl)CC[C@H]2[C@@H]3CCC4=CC(=O)C=C[C@]4(C)[C@H]3[C@@H](O)C[C@@]21C [Loteprednol etabonate]	PDI	0.130
NS(=O)(=O)c1cc(C(=O)O)c(NCc2ccco2)cc1Cl [Furosemide]	PDI	0.146
CCC(=O)O[C@]1(C(=O)SCF)[C@H](C)C[C@H]2[C@@H]3C[C@H](F)C4=CC(=O)C=C[C@]4(C)[C@@]3(F)[C@@H](O)C[C@@]21C [Fluticasone propionate]	PDI	0.193

* * *

Each record here notes measured Z-Ave D.
# METHOD_DESCRIPTION: DLS particle size and PDI of drugs milled with F127 or SDS (Example 6)
# Format: physicochemical
# APPLIED_CONDITIONS: drug milled with stabilizer SDS
QUANTITY_MEASURED: Z-Ave D (nm)

COMPOUND	NUMERIC_READOUT
COc1ccc2c(c1)c(CC(=O)O)c(C)n2C(=O)c1ccc(Cl)cc1	216
CCC(=O)O[C@]1(C(=O)SCF)[C@H](C)C[C@H]2[C@@H]3C[C@H](F)C4=CC(=O)C=C[C@]4(C)[C@@]3(F)[C@@H](O)C[C@@]21C [Fluticasone propionate]	202
C[C@]12C=CC(=O)C=C1CC[C@@H]1[C@@H]2[C@@H](O)C[C@@]2(C)[C@H]1CC[C@]2(O)C(=O)CO	245
CCOC(=O)O[C@]1(C(=O)OCCl)CC[C@H]2[C@@H]3CCC4=CC(=O)C=C[C@]4(C)[C@H]3[C@@H](O)C[C@@]21C [Loteprednol etabonate]	241
NS(=O)(=O)c1cc(C(=O)O)c(NCc2ccco2)cc1Cl [Furosemide]	200
